Would you kindly list Plant response rating, Crabgrass, Large for each of these compounds?
- Test system: large crabgrass (Digitaria sanguinalis)
- test: Test A pre-/postemergence plant response
- Assay type: in vivo
- condition-details: Postemergence, 125 g ai/ha; 0 to 100 scale, 0 no effect, 100 complete control
One number for each entry.

Record excerpt, results attached:
# input-smiles, value-type, numeric-value
records = [
    ("CCc1cc(-c2ccc(Br)cc2)nn1-c1c(O)cnn(CC(F)(F)F)c1=O", "Plant response rating, Crabgrass, Large", 100),
    ("Cc1cc(-c2ccc(Cl)cc2)nn1-c1c(OC(=O)c2cccc(Cl)c2)cnn(C)c1=O", "Plant response rating, Crabgrass, Large", 70),
    ("Cc1nn(C)c(=O)c(-n2nc(-c3ccc(Cl)cc3)cc2Cl)c1O", "Plant response rating, Crabgrass, Large", 90),
    ("CCOC(=O)Oc1cnn(C)c(=O)c1-n1nc(-c2ccc(Cl)cc2)cc1C", "Plant response rating, Crabgrass, Large", 100),
    ("CCCc1cc(-c2ccc(C(F)(F)F)cc2)nn1-c1c(O)cnn(C)c1=O", "Plant response rating, Crabgrass, Large", 90),
    ("Cc1cc(-c2ccc(C(F)(F)F)cc2)nn1-c1c(O)c(C(C)C)nn(C)c1=O", "Plant response rating, Crabgrass, Large", 60),
    ("Cc1cc(-c2ccc(Cl)cc2)nn1-c1c(OS(=O)(=O)C(C)C)cnn(C)c1=O", "Plant response rating, Crabgrass, Large", 40),
    ("CCCc1cc(-c2ccc(Cl)cc2)nn1-c1c(O)cnn(C)c1=O", "Plant response rating, Crabgrass, Large", 90),
]

Here are 2 compounds. What values of Plant response rating, Crabgrass, Large were reported for them?
1. CCn1ncc(O)c(-c2cn(-c3ccc(Cl)cc3)nc2C)c1=O
2. Cc1cc(-c2ccc(Cl)cc2)nn1-c1c(OC(=O)c2cccs2)cnn(C)c1=O

0
90

###

- Tested on: woolly cupgrass (Eriochloa villosa)
- test: Test B pre-/postemergence plant response
- Format: in vivo
- condition-details: Preemergence, 16 g ai/ha; scale 0 to 100 (0 no effect, 100 complete control)
For each entry below, report its Plant response rating, Cupgrass, Woolly value.

Worked cases, Plant response rating, Cupgrass, Woolly given:
# input-smiles, assay-target, Plant response rating, Cupgrass, Woolly
data = [
    ("Cc1cc(-c2ccc(C(F)(F)F)c(F)c2)nn1-c1c(O)c(C(F)(F)F)nn(C)c1=O", "woolly cupgrass (Eriochloa villosa)", 0),
    ("Cc1cc(-c2ccc(Cl)cc2)nn1-c1c(OC(=O)CC(C)C)cnn(C)c1=O", "woolly cupgrass (Eriochloa villosa)", 50),
    ("CCCc1cc(-c2ccc(Cl)cc2)nn1-c1c(O)cnn(C)c1=O", "woolly cupgrass (Eriochloa villosa)", 60),
]

Provide Plant response rating, Cupgrass, Woolly values for the following items, in order.
1. CCc1cc(-c2ccc(C(F)(F)F)cc2)nn1-c1c(OC(=O)OC(C)C)cnn(C)c1=O
2. Cc1cc(-c2ccc(Cl)cc2)nn1-c1c(OS(=O)(=O)c2ccccc2)cnn(C)c1=O

1: 80; 2: 35

###

- Tested on: canarygrass (Phalaris minor)
- test: Test B postemergence plant response
- Type: in vivo
- condition-details: Postemergence, 31 g ai/ha; scale 0 to 100, 0 no effect, 100 complete control
value-type: Plant response rating, Canarygrass
Answers are plain numbers.

Answered cases to consult:
# compound, numeric-value
rows = [
    ("CCCc1cc(-c2ccc(Cl)cc2)nn1-c1c(O)cnn(C)c1=O [Compound 43]", 50),
    ("Cc1cc(-c2ccc(Cl)cc2)nn1-c1c(OC(=O)c2ccccc2Cl)cnn(C)c1=O [Compound 38]", 10),
    ("Cc1cc(-c2ccc(Cl)cc2)nn1-c1c(OC(=O)c2cccc(Cl)c2)cnn(C)c1=O [Compound 32]", 10),
]

Return reported Plant response rating, Canarygrass; argument: Cc1cc(-c2ccc(Br)cc2)nn1-c1c(OC(=O)C2CC2)cnn(C)c1=O [Compound 5]
80
